- ASSAY_DETAILS: Pharmacokinetic study, 4ET-03-009 at 10 mg/kg oral
- Type: in vivo, CD-1 male mice
- ASSAY_SETUP: male, CD-1, mouse, plasma, oral, 10 mg/kg, 24 hours, mean n = 3, read-out: Plasma Conc. Mean
OBSERVED_PROPERTY: concentration at 24 h (ng/mL)

[[record]]
smiles_str = "Cc1cc(Nc2cc(NC(=O)C3CC3)ncn2)c(=O)n2c1C(=O)NC21CCOCC1"
recorded_measurement = 1.92


====

- ASSAY_DETAILS: Pharmacokinetic study, 4ET-03-009 at 20 mg/kg oral
- Format: in vivo, CD-1 male mice
- ASSAY_SETUP: male, CD-1, mouse, plasma, po, 20 mg/kg, for the study, read-out: Cmax
- Procedure: Compound 4ET-03-009 was dissolved in a 10% dimethylacetamide (DMA)/3000 polyethylene glycol (PEG) 300/400% propylene glycol (PG)/200% water solvent. […] Plasma was collected at indicated timepoints and plasma concentration of compound 4ET-03-009 was measured using liquid chromatography-mass spectrometry/mass spectrometry (LC-MS/MS). Results are presented in FIG. 1 and Tables 3, 4, and 5. […]
OBSERVED_PROPERTY: Cmax (nM)

[[record]]
compound = "Cc1cc(Nc2cc(NC(=O)C3CC3)ncn2)c(=O)n2c1C(=O)NC21CCOCC1 [Compound 4ET-03-009]"
observed_property = "Cmax"
quantity_unit = "nM"
recorded_measurement = 1400


====

- TESTED_ON: MNK2 (Homo sapiens, UniProt Q9HBH9)
- Sequence (Q9HBH9 whole entry): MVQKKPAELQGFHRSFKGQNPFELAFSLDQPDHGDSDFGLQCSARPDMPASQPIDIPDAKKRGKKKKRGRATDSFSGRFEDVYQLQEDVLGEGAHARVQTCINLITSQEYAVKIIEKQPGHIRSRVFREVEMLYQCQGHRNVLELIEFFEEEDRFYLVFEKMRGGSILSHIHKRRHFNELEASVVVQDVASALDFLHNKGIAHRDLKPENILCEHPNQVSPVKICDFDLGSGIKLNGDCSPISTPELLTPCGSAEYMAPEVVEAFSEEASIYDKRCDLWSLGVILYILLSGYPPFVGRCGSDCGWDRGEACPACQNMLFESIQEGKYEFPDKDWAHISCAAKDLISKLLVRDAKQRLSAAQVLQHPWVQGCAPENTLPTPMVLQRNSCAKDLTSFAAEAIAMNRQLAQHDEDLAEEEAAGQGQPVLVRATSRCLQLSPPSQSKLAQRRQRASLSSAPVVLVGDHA
- ASSAY_DETAILS: MNK2 substrate phosphorylation assay
- ASSAY_SETUP: recombinant human kinase
pIC50: −log10 of the molar value.
OBSERVED_PROPERTY: pIC50

[[record]]
compound = "CC1=CC2(CCC1)NC(=O)c1c(C)cc(Nc3cc(N)ncn3)c(=O)n12 (stereo not shown)"
recorded_measurement = 8.19

[[record]]
compound = "Cc1cc(Nc2cc(NCCO)ncn2)c(=O)n2c1C(=O)NC21CCCCC1"
recorded_measurement = 8.80

[[record]]
compound = "Cc1cc(Nc2cc(NC(=O)C(C)C)ncn2)c(=O)n2c1C(=O)NC21CCOCC1"
recorded_measurement = 8.13

[[record]]
compound = "Cc1cc(Nc2cc(NC(=O)C3CC3)ncn2)c(=O)n2c1C(=O)NC21CCOc2ccc(Cl)cc21 (stereo not shown)"
recorded_measurement = 8.25

[[record]]
compound = "Cc1cc(Nc2cc(NC(=O)C(C)C)ncn2)c(=O)n2c1C(=O)NC21CCCC1"
recorded_measurement = 8.74

[[record]]
compound = "Cc1cc(Nc2cc(NC(=O)CN3CCOCC3)ncn2)c(=O)n2c1C(=O)NC21CCCCC1"
recorded_measurement = 8.44

[[record]]
compound = "Cc1cc(Nc2cc(NCCNS(C)(=O)=O)ncn2)c(=O)n2c1C(=O)NC21CCCC1"
recorded_measurement = 8.10


====

- ASSAY_DETAILS: Brain vs plasma concentration, 4ET-03-009 at 10 mg/kg
- Format: in vivo, mice
- ASSAY_SETUP: CD-1, mouse, plasma, oral, 10 mg/kg, 10 mg/kg oral, 2 hours after dosing, Plasma, individual; read-out: Plasma Conc. n = 3
OBSERVED_PROPERTY: concentration at 2 hours (ng/mL)

[[record]]
compound = "Cc1cc(Nc2cc(NC(=O)C3CC3)ncn2)c(=O)n2c1C(=O)NC21CCOCC1 [Compound 4ET-03-009]"
quantity_unit = "ng/mL"
recorded_measurement = 357


====

- ASSAY_DETAILS: Pharmacokinetic study, 4ET-03-009 at 20 mg/kg oral
- Assay type: in vivo, CD-1 male mice
- ASSAY_SETUP: male, CD-1, mouse, plasma, po, 20 mg/kg, individual animals
OBSERVED_PROPERTY: MRT inf (h)

[[record]]
smiles_str = "Cc1cc(Nc2cc(NC(=O)C3CC3)ncn2)c(=O)n2c1C(=O)NC21CCOCC1"
quantity_unit = "h"
recorded_measurement = 3.63


====

- TESTED_ON: Cdc2-like kinase 4 (CLK4) (Homo sapiens, UniProt Q9HAZ1)
- Sequence (Q9HAZ1 whole entry): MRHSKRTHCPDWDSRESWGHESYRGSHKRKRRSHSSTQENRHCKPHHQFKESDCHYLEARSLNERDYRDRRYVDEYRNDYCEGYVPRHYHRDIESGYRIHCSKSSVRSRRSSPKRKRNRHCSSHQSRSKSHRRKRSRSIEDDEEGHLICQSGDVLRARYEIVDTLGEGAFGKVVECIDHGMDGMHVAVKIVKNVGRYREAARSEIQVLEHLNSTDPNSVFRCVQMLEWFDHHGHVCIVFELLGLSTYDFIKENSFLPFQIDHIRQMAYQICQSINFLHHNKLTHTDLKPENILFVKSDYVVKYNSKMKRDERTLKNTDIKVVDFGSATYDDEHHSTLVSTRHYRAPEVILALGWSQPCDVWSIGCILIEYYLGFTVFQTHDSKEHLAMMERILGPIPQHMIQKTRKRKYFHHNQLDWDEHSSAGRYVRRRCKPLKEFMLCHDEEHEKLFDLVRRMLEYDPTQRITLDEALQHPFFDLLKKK
- ASSAY_DETAILS: Off-target kinase screen CLK4
- Type: biochemical
- ASSAY_SETUP: 1 μM test compound
OBSERVED_PROPERTY: remaining activity at 1 µM (%)

[[record]]
molecule = "Cc1cc(Nc2cc(N)ncn2)c(=O)n2c1C(=O)NC2(C)C [Compound 4ET-01-003]"
observed_property = "remaining activity at 1 µM"
recorded_measurement = 91

[[record]]
molecule = "Cc1cc(Nc2cc(N)ncn2)c(=O)n2c1C(=O)NC21CCC(O)CC1 (stereo not shown) [Compound 4ET-01-005]"
observed_property = "remaining activity at 1 µM"
recorded_measurement = 63

[[record]]
molecule = "Cc1cc(Nc2cc(N)ncn2)c(=O)n2c1C(=O)NC21CCOCC1 [Compound 4ET-01-002]"
observed_property = "remaining activity at 1 µM"
recorded_measurement = 100

[[record]]
molecule = "Cc1cc(Nc2cc(NC(=O)C3CC3)ncn2)c(=O)n2c1C(=O)NC21CCCC1 [Compound 4ET-03-017]"
observed_property = "remaining activity at 1 µM"
recorded_measurement = 17

[[record]]
molecule = "Cc1cc(Nc2cc(N)ncn2)c(=O)n2c1C(=O)NC21CCCCC1 [eFT508, reference compound]"
observed_property = "remaining activity at 1 µM"
recorded_measurement = 68

[[record]]
molecule = "Cc1cc(Nc2cc(NCCO)ncn2)c(=O)n2c1C(=O)NC21CCCCC1 [Compound 4ET-02-001]"
observed_property = "remaining activity at 1 µM"
recorded_measurement = 92

[[record]]
molecule = "Cc1cc(Nc2cc(NC(=O)C3CC3)ncn2)c(=O)n2c1C(=O)NC21CCOCC1 [Compound 4ET-03-009]"
observed_property = "remaining activity at 1 µM"
recorded_measurement = 54

[[record]]
molecule = "Cc1cc(Nc2cc(NC(=O)C3CC3)ncn2)c(=O)n2c1C(=O)NC21CCC(O)CC1 (stereo not shown) [Compound 4ET-03-015]"
observed_property = "remaining activity at 1 µM"
recorded_measurement = 14

[[record]]
molecule = "Cc1cc(Nc2cc(NCCNS(C)(=O)=O)ncn2)c(=O)n2c1C(=O)NC21CCCCC1 [Compound 4ET-02-004]"
observed_property = "remaining activity at 1 µM"
recorded_measurement = 81

[[record]]
molecule = "Cc1cc(Nc2cc(N)ncn2)c(=O)n2c1C(=O)NC21CCC(NS(C)(=O)=O)CC1 (stereo not shown) [Compound 4ET-01-004]"
observed_property = "remaining activity at 1 µM"
recorded_measurement = 93


====

- ASSAY_DETAILS: Liver microsome stability, rat
- Assay type: in vitro ADME
- ASSAY_SETUP: Rat liver microsomes (#); read-out: Rodent liver microsomes t1/2
Listed compounds paired with reported half-life
OBSERVED_PROPERTY: half-life (h)

[[record]]
compound = "Cc1cc(Nc2cc(NC(=O)C3CC3)ncn2)c(=O)n2c1C(=O)NC21CCOCC1 [Compound 4ET-03-009]"
observed_property = "half-life"
recorded_measurement = 9.08

[[record]]
compound = "Cc1cc(Nc2cc(NCCN3CCOCC3)ncn2)c(=O)n2c1C(=O)NC21CCCCC1 [Compound 4ET-02-005]"
observed_property = "half-life"
recorded_measurement = 1.7

[[record]]
compound = "Cc1cc(Nc2cc(NC(=O)C(C)C)ncn2)c(=O)n2c1C(=O)NC21CCCC1 [Compound 4ET-03-005]"
observed_property = "half-life"
recorded_measurement = 4.78

[[record]]
compound = "Cc1cc(Nc2cc(N)ncn2)c(=O)n2c1C(=O)NC2(C)C [Compound 4ET-01-003]"
observed_property = "half-life"
recorded_measurement = 9.93

[[record]]
compound = "Cc1cc(Nc2cc(NC(=O)C3CC3)ncn2)c(=O)n2c1C(=O)NC21CCC(O)CC1 (stereo not shown) [Compound 4ET-03-015]"
observed_property = "half-life"
recorded_measurement = 7.27

[[record]]
compound = "Cc1cc(Nc2cc(N)ncn2)c(=O)n2c1C(=O)NC21CCC(NS(C)(=O)=O)CC1 (stereo not shown) [Compound 4ET-01-004]"
observed_property = "half-life"
recorded_measurement = 2.42

[[record]]
compound = "Cc1cc(Nc2cc(NCCO)ncn2)c(=O)n2c1C(=O)NC21CCCCC1 [Compound 4ET-02-001]"
observed_property = "half-life"
recorded_measurement = 9.1

[[record]]
compound = "Cc1cc(Nc2cc(N)ncn2)c(=O)n2c1C(=O)NC21CCOCC1 [Compound 4ET-01-002]"
observed_property = "half-life"
recorded_measurement = 8.57

[[record]]
compound = "Cc1cc(Nc2cc(NC(=O)C3CC3)ncn2)c(=O)n2c1C(=O)NC21CCCCC1 [Compound 4ET-02-003]"
observed_property = "half-life"
recorded_measurement = 6.17

[[record]]
compound = "Cc1cc(Nc2cc(N)ncn2)c(=O)n2c1C(=O)NC21CCCCC1 [eFT508, reference compound]"
observed_property = "half-life"
recorded_measurement = 8.07


Source of measurements: patent US20230286983A1
